The measured values listed here are drawn from ChEMBL document CHEMBL3112537.

Recorded Activity, one value per entry.
- Test system: Rattus norvegicus
- protocol.summary: In vivo inhibition of MAO-A in Sprague-Dawley rat assessed as 5-hydroxyindoleacetic acid in brain striatum at 100 umol/kg, sc after 1 hr by HPLC/EC analysis relative to control
- Format: functional
- Parameters: scale not given: the % may be the effect or the level left
measurement.kind: Activity (%)

# smiles.str, val
measured = [
    ("CCCNCc1cc2ccccc2oc1=O", 116),
    ("O=c1oc2ccccc2cc1CN1CCCC1", 106),
    ("O=c1oc2ccc([N+](=O)[O-])cc2cc1CN1CCCC1", 118),
    ("O=c1oc2ccc(C(F)(F)F)cc2cc1CN1CCCC1", 104),
    ("COc1ccc2oc(=O)c(CN3CCCC3)cc2c1", 90),
]

* * *

Recorded remaining at 1 h, 5 µM, one value per entry.
- protocol.summary: Metabolic stability in rat liver microsomes assessed as compound remaining at 5 uM after 60 mins by LC-MS/MS analysis
- Assay type: ADME
- test.conditions: read-out: Stability

# smiles.str, measurement.units, value.modifier, remaining at 1 h, 5 µM
rows = [
    ("O=c1oc2ccc(OC(F)(F)F)cc2cc1CN1CCCC1", "%", "=", 3),
    ("CCCNCc1cc2ccccc2oc1=O", "%", "=", 0),
    ("O=c1oc2ccccc2cc1CN1CCCC1", "%", "<", 5),
    ("Nc1ccc2oc(=O)c(CN3CCCC3)cc2c1", "%", "=", 80),
]

* * *

Recorded log10(IC50), one value per entry.
- tested.on: Amine oxidase [flavin-containing] A (Homo sapiens)
- protocol.summary: Inhibition of human recombinant MAO-A assessed as kynuramine oxidation to 4-hydroxyquinoline after 40 mins by LC-MS/MS analysis
measurement.kind: log10(IC50) (log10 of the value in µM)

# smiles.str, tested.on, measurement.kind, val
records = [
    ("O=c1oc2ccccc2cc1CN1CCCC1", "Amine oxidase [flavin-containing] A (Homo sapiens)", "log10(IC50)", 0.80),
    ("O=c1oc2ccc(C(F)(F)F)cc2cc1CN1CCCC1", "Amine oxidase [flavin-containing] A (Homo sapiens)", "log10(IC50)", 0.93),
    ("COc1ccc2oc(=O)c(CN3CCCC3)cc2c1", "Amine oxidase [flavin-containing] A (Homo sapiens)", "log10(IC50)", 0.65),
    ("CCCCOc1ccc2oc(=O)c(CNCC)cc2c1", "Amine oxidase [flavin-containing] A (Homo sapiens)", "log10(IC50)", 0.29),
    ("O=c1oc2ccc(O)cc2cc1CN1CCCC1", "Amine oxidase [flavin-containing] A (Homo sapiens)", "log10(IC50)", 0.16),
    ("O=c1oc2ccc(OC(F)(F)F)cc2cc1CN1CCCC1", "Amine oxidase [flavin-containing] A (Homo sapiens)", "log10(IC50)", 0.63),
    ("CCCNCc1cc2ccccc2oc1=O", "Amine oxidase [flavin-containing] A (Homo sapiens)", "log10(IC50)", 1.23),
    ("Nc1ccc2oc(=O)c(CN3CCCC3)cc2c1", "Amine oxidase [flavin-containing] A (Homo sapiens)", "log10(IC50)", 0.58),
    ("CCCOc1ccc2oc(=O)c(CN3CCCC3)cc2c1", "Amine oxidase [flavin-containing] A (Homo sapiens)", "log10(IC50)", 0.33),
]

* * *

- tested.on: Amine oxidase [flavin-containing] B (Homo sapiens, UniProt P27338)
- Sequence (P27338 whole entry): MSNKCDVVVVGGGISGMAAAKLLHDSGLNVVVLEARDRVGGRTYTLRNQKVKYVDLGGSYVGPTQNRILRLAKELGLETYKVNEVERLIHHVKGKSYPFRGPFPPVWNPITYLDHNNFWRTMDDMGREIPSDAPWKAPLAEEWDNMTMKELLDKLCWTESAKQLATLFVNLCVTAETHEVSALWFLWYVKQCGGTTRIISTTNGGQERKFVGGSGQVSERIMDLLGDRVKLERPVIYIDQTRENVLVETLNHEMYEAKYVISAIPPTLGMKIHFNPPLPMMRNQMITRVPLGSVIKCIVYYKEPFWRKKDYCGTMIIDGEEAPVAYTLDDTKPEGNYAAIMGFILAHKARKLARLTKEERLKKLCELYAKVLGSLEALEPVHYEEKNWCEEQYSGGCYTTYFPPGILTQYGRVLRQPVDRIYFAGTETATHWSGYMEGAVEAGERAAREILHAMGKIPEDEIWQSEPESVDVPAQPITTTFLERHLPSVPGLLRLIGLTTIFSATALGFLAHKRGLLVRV
- protocol.summary: Inhibition of human recombinant MAO-B assessed as kynuramine oxidation to 4-hydroxyquinoline after 40 mins by LC-MS/MS analysis
pIC50: −log10 of the molar value.

# smiles.str, pIC50
data = [
    ("Nc1ccc2oc(=O)c(CN3CCCC3)cc2c1", "< 4.00"),
    ("CCCCOc1ccc2oc(=O)c(CNCC)cc2c1", 5.13),
    ("COc1ccc2oc(=O)c(CN3CCCC3)cc2c1", "< 4.00"),
    ("O=c1oc2ccc(OCc3ccccc3)cc2cc1CN1CCCC1", "< 4.00"),
]

* * *

- Species on record: Homo sapiens
- protocol.summary: Selectivity index, ratio of IC50 for human recombinant MAO-B to IC50 for human recombinant MAO-A
Recorded Ratio IC50, one value per entry.
measurement.kind: Ratio IC50

# smiles.str, measurement.kind, value.modifier, val
data = [
    ("CCCNCc1cc2ccccc2oc1=O", "Ratio IC50", "=", 3.6),
    ("Nc1ccc2oc(=O)c(CN3CCCC3)cc2c1", "Ratio IC50", ">", 26.5),
    ("O=c1oc2ccc(O)cc2cc1CN1CCCC1", "Ratio IC50", ">", 68),
    ("COc1ccc2oc(=O)c(CN3CCCC3)cc2c1", "Ratio IC50", ">", 22.3),
    ("CCCOc1ccc2oc(=O)c(CN3CCCC3)cc2c1", "Ratio IC50", "=", 10.3),
    ("O=c1oc2ccc(C(F)(F)F)cc2cc1CN1CCCC1", "Ratio IC50", ">", 11.8),
    ("O=c1oc2ccccc2cc1CN1CCCC1", "Ratio IC50", ">", 15.8),
    ("N[C@@H]1C[C@H]1c1ccccc1.N[C@H]1C[C@@H]1c1ccccc1", "Ratio IC50", "=", 1),
    ("CCCCOc1ccc2oc(=O)c(CNCC)cc2c1", "Ratio IC50", "=", 3.7),
    ("O=c1oc2ccc(OC(F)(F)F)cc2cc1CN1CCCC1", "Ratio IC50", ">", 23.5),
]

* * *

- tested.on: UniProtKB P21397
- Sequence (P21397 whole entry): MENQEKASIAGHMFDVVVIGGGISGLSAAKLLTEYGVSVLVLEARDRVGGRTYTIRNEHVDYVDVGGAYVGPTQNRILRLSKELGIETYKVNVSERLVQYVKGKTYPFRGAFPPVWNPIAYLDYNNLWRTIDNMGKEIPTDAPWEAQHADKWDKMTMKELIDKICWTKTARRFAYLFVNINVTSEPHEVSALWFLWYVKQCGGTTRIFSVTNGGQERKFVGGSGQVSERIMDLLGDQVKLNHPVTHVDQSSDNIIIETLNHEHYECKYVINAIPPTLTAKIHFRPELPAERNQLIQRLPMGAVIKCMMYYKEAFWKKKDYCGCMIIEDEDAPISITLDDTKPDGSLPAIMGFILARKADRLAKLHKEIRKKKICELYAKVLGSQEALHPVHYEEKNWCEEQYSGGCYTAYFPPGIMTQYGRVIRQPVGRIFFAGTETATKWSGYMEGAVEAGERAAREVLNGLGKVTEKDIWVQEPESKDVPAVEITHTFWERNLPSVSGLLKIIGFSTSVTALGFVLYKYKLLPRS
- protocol.summary: Inhibition of MAO-A (unknown origin)
pIC50: −log10 of the molar value.
measurement.kind: pIC50

# smiles.str, val
records = [
    ("O=C(O)c1cc2cc([N+](=O)[O-])ccc2oc1=O", 7.17),
]

* * *

- tested.on: Amine oxidase [flavin-containing] B (Homo sapiens)
- protocol.summary: Inhibition of MAO-B (unknown origin)

# smiles.str, tested.on, IC50 / nM
rows = [
    ("O=C(O)c1cc2cc([N+](=O)[O-])ccc2oc1=O", "Amine oxidase [flavin-containing] B (Homo sapiens)", 19.5),
]

* * *

- tested.on: D(2) dopamine receptor (Homo sapiens)
- Sequence (P14416 whole entry): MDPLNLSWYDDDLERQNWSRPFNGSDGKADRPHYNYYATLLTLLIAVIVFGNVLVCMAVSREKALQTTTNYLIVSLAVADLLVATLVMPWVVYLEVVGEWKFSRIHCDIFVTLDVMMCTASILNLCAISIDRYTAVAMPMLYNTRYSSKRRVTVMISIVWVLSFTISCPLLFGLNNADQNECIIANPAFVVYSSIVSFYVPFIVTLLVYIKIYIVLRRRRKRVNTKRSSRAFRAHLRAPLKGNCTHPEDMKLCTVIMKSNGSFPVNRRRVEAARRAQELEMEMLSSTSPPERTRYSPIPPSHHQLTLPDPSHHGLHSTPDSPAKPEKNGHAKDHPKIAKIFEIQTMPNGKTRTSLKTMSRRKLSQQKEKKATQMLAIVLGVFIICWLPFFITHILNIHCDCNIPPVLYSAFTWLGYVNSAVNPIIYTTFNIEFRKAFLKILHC
- protocol.summary: Antagonist activity at dopamine D2 receptor (unknown origin) expressed in HEK cells co-expressing Gqi5 assessed as inhibition of dopamine-induced effect by FLIPR assay

# smiles.str, IC50
data = [
    ("CCCNCc1cc2ccccc2oc1=O", "> 30 µM"),
    ("O=c1oc2ccc(C(F)(F)F)cc2cc1CN1CCCC1", "> 30 µM"),
    ("O=c1oc2ccc(OC(F)(F)F)cc2cc1CN1CCCC1", "> 26 µM"),
    ("O=c1oc2ccc([N+](=O)[O-])cc2cc1CN1CCCC1", "> 30 µM"),
    ("Nc1ccc2oc(=O)c(CN3CCCC3)cc2c1", "16.3 µM"),
    ("COc1ccc2oc(=O)c(CN3CCCC3)cc2c1", "> 30 µM"),
]
